Tested on: BDF1 mice, B16 melanoma ip, median survival T/C
test details: NCI In Vivo Anticancer Drug Screen. Data for tumor model B16 Melanoma (intraperitoneal) in B6D2F1 (BDF1) mice
test context: endpoint: median survival time; dose: 2.0 mg/kg/injection; schedule: Q01DX009 (ip); vehicle: saline; higher = longer survival
Inconclusive results and toxic doses are left out.
quantity: T/C

>>> assay_value("CO[C@H]1C[C@H](O[C@H]2CC[C@]3(C=O)[C@H]4CC[C@]5(C)[C@@H](C6=CC(=O)OC6)CC[C@]5(O)[C@@H]4CC[C@]3(O)C2)O[C@H](C)[C@H]1O[C@@H]1O[C@H](CO)[C@@H](O)[C@H](O)[C@H]1O")
"94 % of control"
>>> assay_value("COc1cc([C@@H]2c3cc4c(cc3[C@H](O)[C@H]3COC(=O)[C@H]23)OCO4)cc(OC)c1OC")
"102 % of control"
>>> assay_value("CC(=O)OCC12CCC(C)=CC1OC1C(OS(C)(=O)=O)C(=O)C2(C)C12CO2 (stereo not drawn)")
"104 % of control"
>>> assay_value("CCC[P+](c1ccccc1)(c1ccccc1)c1ccccc1")
"96 % of control"
>>> assay_value("CC(C)n1c2c([n+](C)c1/C=C/c1ccccc1)C(=O)c1ccccc1C2=O")
"90 % of control"
>>> assay_value("OCC1OC(n2cnc3c2NC=NC[C@H]3O)CC1O (stereo partly drawn)")
"86 % of control"
>>> assay_value("CC(C)C[CH2][Pb]([Cl])([CH2]CC(C)C)[CH2]CC(C)C")
"101 % of control"
>>> assay_value("C1CCC2C[N-]CCC2C1.C1CCC2C[N-]CCC2C1.C1CCC2C[N-]CCC2C1.C1CCC2C[N-]CCC2C1.[Cl][Rh][Cl] (stereo not drawn)")
"123 % of control"

* * *

Test system: BDF1 mice, B16 melanoma ip, median survival T/C
test details: NCI In Vivo Anticancer Drug Screen. Data for tumor model B16 Melanoma (intraperitoneal) in B6D2F1 (BDF1) mice
test context: endpoint: median survival time; dose: 25.0 mg/kg/injection; schedule: Q01DX009 (ip); vehicle: saline with Tween-80; higher = longer survival
Inconclusive results and toxic doses are left out.
Measured T/C, listed per entry.
quantity: T/C

>>> assay_value("O=C1c2ccc(Br)cc2-c2cc(Br)ccc21")
"87 % of control"
>>> assay_value("CCCCn1cnc2c(=S)nc[nH]c21")
"95 % of control"
>>> assay_value("CC/C(C)=C1\\OC(=O)C(C)C(O)C(Cc2cccnc2)NC(=O)C(NC(=O)c2ncccc2O)C(C)OC1=O (stereo unspecified)")
"96 % of control"
>>> assay_value("CCCCOc1ccc(NC(=O)CCl)cc1")
"100 % of control"
>>> assay_value("O=c1[nH]c(=O)n(C2CC(O)C(CO)O2)cc1I (stereo unspecified)")
"106 % of control"
>>> assay_value("CCCCCCC(=O)/C=C/c1cccc(OCOCC)c1")
"94 % of control"
>>> assay_value("Cn1ccc(=Nc2ccc(NC(=O)c3ccc(N=c4ccn(C)c5ccc([N+](=O)[O-])cc45)cc3[N+](=O)[O-])cc2)cc1")
"97 % of control"
>>> assay_value("CCCCNC(=S)N/N=C/c1ccccn1")
"102 % of control"
>>> assay_value("CCCCNC(=O)Oc1ccc(C(=O)OCC)cc1")
"96 % of control"
>>> assay_value("O=[N+]([O-])c1cccc(C(O)C=C(C(F)(F)F)C(F)(F)F)c1 (stereo unspecified)")
"93 % of control"
>>> assay_value("CN(C)CC/C=C1\\c2ccccc2C(C)(C)c2ccc(Cl)cc21")
"118 % of control"

* * *

Test system: BDF1 mice, B16 melanoma ip, median survival T/C
test details: NCI In Vivo Anticancer Drug Screen. Data for tumor model B16 Melanoma (intraperitoneal) in B6D2F1 (BDF1) mice
test context: endpoint: median survival time; dose: 50.0 mg/kg/injection; schedule: Q01DX009 (ip); vehicle: saline; higher = longer survival
Toxic doses and inconclusive results are not listed.
Measured T/C, listed per entry.
quantity: T/C

>>> assay_value("CN(C)CCOCCOC(=O)N1c2ccccc2Sc2ccccc21")
"109 % of control"
>>> assay_value("CNc1nc(N(C)C)nc(N(C)C)n1")
"116 % of control"
>>> assay_value("CC(=O)OCC1OC(n2ccc(N)nc2=O)C(OC(C)=O)C1OC(C)=O (centres undefined)")
"105 % of control"
>>> assay_value("CCO/C=C1\\SC(=S)N(c2cccc(OC)c2)C1=O")
"100 % of control"
>>> assay_value("CC(N)Cc1ccccc1 (centres undefined)")
"97 % of control"
>>> assay_value("Nc1ncnc2c1c1c(N)[nH]nc1n2C1OC(CO)C(O)C1O (centres undefined)")
"106 % of control"
>>> assay_value("O=C(NO)c1ccccc1")
"97 % of control"
>>> assay_value("CC(NC(=O)C(N)CCC(=O)O)C(=O)O (centres undefined)")
"97 % of control"
>>> assay_value("NC(=S)c1ncn(C2OC(CO)C(O)C2O)c1N (centres undefined)")
"105 % of control"
>>> assay_value("CCNCCNC")
"98 % of control"
>>> assay_value("C[N+](C)(C)C1CC1")
"102 % of control"
>>> assay_value("NCCC(=O)OC1CCCc2c(O)c3c(c(O)c21)C(=O)c1ccccc1C3=O (centres undefined)")
"93 % of control"
>>> assay_value("CN=C(N)NC")
"95 % of control"
>>> assay_value("CCOC(=O)C(C#N)N=O (centres undefined)")
"111 % of control"

* * *

Tested on: BDF1 mice, B16 melanoma ip, median survival T/C
test details: NCI In Vivo Anticancer Drug Screen. Data for tumor model B16 Melanoma (intraperitoneal) in B6D2F1 (BDF1) mice
test context: endpoint: median survival time; dose: 25.0 mg/kg/injection; schedule: Q01DX009 (ip); vehicle: Klucel (hydroxypropylcellulose) (HPC); higher = longer survival
Toxic doses and inconclusive results are not listed.
quantity: T/C

>>> assay_value("CCCCCCCCCCCCCCCCCC(=O)NN")
"98 % of control"
>>> assay_value("Cc1ccc(NC(=S)NC(Cc2ccccc2)c2ccccc2)cc1 (stereo not drawn)")
"100 % of control"
>>> assay_value("O=C(CCl)c1ccc(O)c(O)c1")
"87 % of control"

* * *

Tested on: BDF1 mice, B16 melanoma ip, median survival T/C
test details: NCI In Vivo Anticancer Drug Screen. Data for tumor model B16 Melanoma (intraperitoneal) in B6D2F1 (BDF1) mice
test context: endpoint: median survival time; dose: 6.25 mg/kg/injection; schedule: Q01DX009 (ip); vehicle: saline; higher = longer survival
Inconclusive results and toxic doses are left out.
quantity: T/C

>>> assay_value("CC(=O)OCCC/C(=C\\c1ccc2ccccc2c1)[N+](=O)[O-]")
"100 % of control"
>>> assay_value("C#CC(O)(/C=C\\Cl)CC (stereo unspecified)")
"110 % of control"
>>> assay_value("CC(C(=O)O)C(=O)O.[NH2-].[NH2-].[Pt+2]")
"124 % of control"
>>> assay_value("c1ccc(CN2CCNCC2)cc1")
"108 % of control"
>>> assay_value("C[N+]1(C)CCCC1")
"111 % of control"
>>> assay_value("C[C@]12CC[C@@H]3c4ccc(Oc5nc(N6CC6)nc(N6CC6)n5)cc4CC[C@H]3[C@@H]1CCC2=O")
"113 % of control"
>>> assay_value("CN(C)CCN1c2ccccc2Sc2ccccc21")
"110 % of control"
>>> assay_value("O=S(=O)(O)c1ccc(/C2=c3\\cc/c([n-]3)=C(\\c3ccc(S(=O)(=O)O)cc3)c3ccc([n-]3)/C(c3ccc(S(=O)(=O)O)cc3)=c3/cc/c([n-]3)=C(\\c3ccc(S(=O)(=O)O)cc3)c3ccc2[n-]3)cc1.[Co]")
"107 % of control"
>>> assay_value("COc1cc(C(=O)OCCCN2CCOCC2)cc(OC)c1OC")
"105 % of control"
>>> assay_value("CCN(CC)CCOC(=O)c1ccc(NC(=O)Nc2ccc(C(=O)OCCN(CC)CC)cc2)cc1")
"95 % of control"
>>> assay_value("CC(C)=CC(=O)OCC[N+](C)(C)C")
"104 % of control"

* * *

System: BDF1 mice, B16 melanoma ip, median survival T/C
test details: NCI In Vivo Anticancer Drug Screen. Data for tumor model B16 Melanoma (intraperitoneal) in B6D2F1 (BDF1) mice
test context: endpoint: median survival time; dose: 50.0 mg/kg/injection; schedule: Q01DX009 (ip); vehicle: saline with Tween-80
Toxic doses and inconclusive results are not listed. How the source made its calls: active means survival T/C of 150% or more; inactive means T/C below 125% in these data.
Outcomes: active, inactive

>>> category_label("O=C(Nc1ccccc1C(F)(F)F)c1ccc(C(=O)Nc2ccccc2C(F)(F)F)cc1")
"active"
>>> category_label("CC(C)CCC1(CCBr)C(=O)NC(=Nc2ccccc2)NC1=O (configuration not stated)")
"inactive"
>>> category_label("ClC(Cl)(Cl)C(N1CCN(c2ccccc2)CC1)N1CCN(c2ccccc2)CC1")
"inactive"
>>> category_label("Cc1ccc(NC(=O)Nc2cccc(C(F)(F)F)c2)cc1NC(=O)Nc1cccc(C(F)(F)F)c1")
"inactive"
>>> category_label("CC(NC(=O)C1CCCN1C(=O)OCc1ccccc1)C(=O)O (configuration not stated)")
"inactive"
>>> category_label("CC(=O)SCC(C)CCl (configuration not stated)")
"inactive"
>>> category_label("C[N+](C)(CCO)Cc1ccccc1")
"inactive"
>>> category_label("NC(=O)C(Br)CBr (configuration not stated)")
"inactive"
>>> category_label("CCO/C=C1\\SC(=S)N(c2ccccc2C)C1=O")
"inactive"
>>> category_label("O=C1CC(C(=O)N2Cc3cc4ccccc4nc3C2)CO1 (configuration not stated)")
"inactive"
>>> category_label("CCCCCCCCCNC(=O)Nc1cccc(Cl)c1C")
"inactive"
>>> category_label("C[Si]1(C)CCCSC1")
"inactive"
